Target: DPP-IV (Homo sapiens, UniProt P27487)
Construct: Soluble human DPP-IV lacking the transmembrane anchor (Gly31-Pro766); Pre-Pro-alpha-mating factor leader (secretion fusion) (N, cleaved yes); made in house
Sequence (P27487 31-766): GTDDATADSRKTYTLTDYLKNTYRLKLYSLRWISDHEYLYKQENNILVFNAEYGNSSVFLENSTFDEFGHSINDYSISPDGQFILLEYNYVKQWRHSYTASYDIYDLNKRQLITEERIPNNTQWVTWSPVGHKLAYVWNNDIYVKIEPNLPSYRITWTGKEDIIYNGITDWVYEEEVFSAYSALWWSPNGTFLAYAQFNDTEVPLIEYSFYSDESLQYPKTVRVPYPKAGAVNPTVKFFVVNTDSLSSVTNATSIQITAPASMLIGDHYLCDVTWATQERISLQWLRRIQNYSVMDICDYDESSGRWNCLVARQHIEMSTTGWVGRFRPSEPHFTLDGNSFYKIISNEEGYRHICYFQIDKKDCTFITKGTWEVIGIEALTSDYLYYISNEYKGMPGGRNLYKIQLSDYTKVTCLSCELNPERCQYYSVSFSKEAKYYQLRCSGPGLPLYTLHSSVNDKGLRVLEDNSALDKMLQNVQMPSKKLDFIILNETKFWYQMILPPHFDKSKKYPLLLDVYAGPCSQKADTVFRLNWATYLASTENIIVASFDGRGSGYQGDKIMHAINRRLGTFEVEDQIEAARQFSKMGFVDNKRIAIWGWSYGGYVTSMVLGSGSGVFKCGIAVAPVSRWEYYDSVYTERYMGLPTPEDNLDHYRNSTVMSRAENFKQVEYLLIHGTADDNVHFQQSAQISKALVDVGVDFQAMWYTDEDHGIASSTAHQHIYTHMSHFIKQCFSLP
Experiment: Continuous fluorimetric assay of inhibition of DPP-IV peptidase activity (Gly-Pro-AMC cleavage)
Type: biochemical
Conditions: 50 pM DPP-IV, 16 μM Gly-Pro-AMC, pH 7.4, 25° C.; values grouped in 2 classes; read-out: IC50 for inhibition of DPP-IV peptidase activity
pIC50: −log10 of the molar value. Structures can show the parent of a compound that is named as a salt.

{"columns": ["Compound", "pIC50"],
 "data": [
  ["N[C@@H](CC(=O)N1CCC(c2cccc(F)c2)CC1)Cc1ccccc1F", "5.70 to 6.30"],
  ["N[C@@H](CC(=O)N1CCC(c2nc(-c3cccc(C(F)(F)F)c3)no2)CC1)Cc1ccccc1F", "5.70 to 6.30"],
  ["N[C@@H](CC(=O)N1CCC(O)CC1)Cc1ccccc1F", "5.70 to 6.30"],
  ["N[C@@H](CC(=O)N1CC[C@@H](NC(=O)C2CC2)C1)Cc1ccccc1F [Example 54, trifluoroacetic acid salt]", "> 6.30"]
]}
